Hi there, I'd appreciate the recorded log10 of solubility thermodynamic at 4 h for every entry that follows.
Assay: physchem
Conditions: water
Units before log transform: µM; reported quantity: solubility thermodynamic at 4 h; transform: log10.

{"Molecule": "CC(C)=CC[C@H]1C[C@@]23C[C@@H](CC=C(C)C)C(C)(C)[C@@](CC=C(C)C)(C(=O)C(C(=O)c4ccc(O)c(O)c4)=C2OC1(C)C)C3=O", "log10 of solubility thermodynamic at 4 h": -0.07}
{"Molecule": "CC(C)(C#N)c1cc(Cn2cncn2)cc(C(C)(C)C#N)c1", "log10 of solubility thermodynamic at 4 h": -0.47}
{"Molecule": "CCCSc1ccc2nc(NC(=O)OC)[nH]c2c1", "log10 of solubility thermodynamic at 4 h": -0.42}

Each of the following entries comes with a recorded value; kindly state log10 of solubility thermodynamic at 4 h for each.
1. COc1ccc2cc3[n+](cc2c1OC)CCc1cc2c(cc1-3)OCO2.[Cl-] [BERBERINE CHLORIDE]
2. CC(C(=O)[O-])c1ccc(-c2ccccc2)c(F)c1.[Na+] (centres undefined)
3. CC(=O)N[C@@H](CS)C(=O)O
4. NNC(=O)c1ccncc1
5. O=C(/C=C/C=C/c1ccc2c(c1)OCO2)N1CCCCC1
6. COc1cc(/C=C/C(=O)CC(=O)/C=C/c2ccc(O)c(OC)c2)ccc1O

[2.33, 2.52, 1.39, 2.77, 1.85, 0.13]

---

Hi there, I'd appreciate the recorded -log(solubility) for every entry that follows.
Details: buffer, pH 7.4, 4 h
Answers are plain numbers.

Illustrative cases are given below, each with its answer.
{"Compound": "NC(=O)N1c2ccccc2C=Cc2ccccc21 [CARBAMAZEPINE]", "-log(solubility)": 4.47}
{"Compound": "CC1(C)[C@@H](O)CC[C@]2(C)[C@H]3C(=O)C=C4[C@@H]5C[C@@](C)(C(=O)O)CC[C@]5(C)CC[C@@]4(C)[C@]3(C)CC[C@@H]12", "-log(solubility)": 5.67}
{"Compound": "CO[C@H]1/C=C/O[C@@]2(C)Oc3c(C)c(O)c4c(O)c(c(/C=N/N5CCN(C)CC5)c(O)c4c3C2=O)NC(=O)/C(C)=C\\C=C\\[C@H](C)[C@H](O)[C@@H](C)[C@@H](O)[C@@H](C)[C@H](OC(C)=O)[C@@H]1C", "-log(solubility)": 4.01}
{"Compound": "COCCOC(=O)C1=C(C)NC(C)=C(C(=O)OC(C)C)C1c1cccc([N+](=O)[O-])c1 (configuration not stated)", "-log(solubility)": 6.62}
{"Compound": "CC(=O)Nc1ccc(O)cc1", "-log(solubility)": 3}
{"Compound": "CCCC1O[C@@H]2C[C@H]3[C@@H]4CCC5=CC(=O)C=C[C@]5(C)[C@H]4[C@@H](O)C[C@]3(C)[C@]2(C(=O)CO)O1 (some centres not stated) [BUDESONIDE]", "-log(solubility)": 5.03}

We now examine a further compound.
What value of -log(solubility) has been recorded for this entry: COc1cc2c(c(OC)c1OC)-c1ccc(OC)c(=O)cc1[C@@H](NC(C)=O)CC2
3.7

---

Hi there, I'd appreciate the recorded -log(solubility) for every entry that follows.
Settings: buffer, 24 h
Answers are plain numbers.

{"Molecule": "CO[C@H]1/C=C/O[C@@]2(C)Oc3c(C)c(O)c4c(O)c(c(/C=N/N5CCN(C)CC5)c(O)c4c3C2=O)NC(=O)/C(C)=C\\C=C\\[C@H](C)[C@H](O)[C@@H](C)[C@@H](O)[C@@H](C)[C@H](OC(C)=O)[C@@H]1C", "-log(solubility)": 4.21}
{"Molecule": "CC(=O)Nc1ccc(O)cc1", "-log(solubility)": 2.87}
{"Molecule": "NC(=O)N1c2ccccc2C=Cc2ccccc21 [CARBAMAZEPINE]", "-log(solubility)": 4.4}

What value of -log(solubility) has been recorded for this entry: CCCC1O[C@@H]2C[C@H]3[C@@H]4CCC5=CC(=O)C=C[C@]5(C)[C@H]4[C@@H](O)C[C@]3(C)[C@]2(C(=O)CO)O1 (some centres undefined) [BUDESONIDE]
5.23

---

Test: physchem
Settings: simulated gastric fluid, pH 1.2
Hi there, I'd appreciate the recorded solubility thermodynamic at 24 h for every entry that follows.
Answers are plain numbers, in µM.

{"Compound": "CCC(=O)O[C@]1(C(=O)SCF)[C@H](C)C[C@H]2[C@@H]3C[C@H](F)C4=CC(=O)C=C[C@]4(C)[C@@]3(F)[C@@H](O)C[C@@]21C [FLUTICASONE PROPIONATE]", "solubility thermodynamic at 24 h (µM)": 0.2}
{"Compound": "COc1c2occc2c(OC)c2c(=O)cc(C)oc12", "solubility thermodynamic at 24 h (µM)": 97.7}
{"Compound": "CCCc1nc2c(C)cc(-c3nc4ccccc4n3C)cc2n1Cc1ccc(-c2ccccc2C(=O)O)cc1", "solubility thermodynamic at 24 h (µM)": 40.7}

We now examine a further compound.
What value of solubility thermodynamic at 24 h has been recorded for this entry: CO[C@H]1/C=C/O[C@@]2(C)Oc3c(C)c(O)c4c(O)c(c(/C=N/N5CCN(C)CC5)c(O)c4c3C2=O)NC(=O)/C(C)=C\C=C\[C@H](C)[C@H](O)[C@@H](C)[C@@H](O)[C@@H](C)[C@H](OC(C)=O)[C@@H]1C
95.5

---

Assay: physchem
Conditions: simulated intestinal fluid, pH 6.8
Endpoint: solubility thermodynamic at 24 h (µM)
Answers are plain numbers, in µM.

{"Compound": "CCCc1nc2c(C)cc(-c3nc4ccccc4n3C)cc2n1Cc1ccc(-c2ccccc2C(=O)O)cc1", "Reading unit": "µM", "Numeric result": 2.29}

Each of the following entries comes with a recorded value; kindly state solubility thermodynamic at 24 h for each.
1. CCCSc1ccc2nc(NC(=O)OC)[nH]c2c1
2. CC(C)(C#N)c1cc(Cn2cncn2)cc(C(C)(C)C#N)c1
3. OC(Cn1cncn1)(Cn1cncn1)c1ccc(F)cc1F
4. CC(=O)Nc1ccc(O)cc1

1. 0.759
2. 0.692
3. 0.891
4. 3.31

What value of solubility thermodynamic at 24 h has been recorded for this entry: CN(C/C=C/C#CC(C)(C)C)Cc1cccc2ccccc12.Cl [TERBINAFINE HYDROCHLORIDE]
0.617

---

Assay: physchem
Details: buffer
Endpoint: solubility thermodynamic at 4 h

What value of solubility thermodynamic at 4 h has been recorded for this entry: Cc1cnc(NC(=O)C2=C(O)c3ccccc3S(=O)(=O)N2C)s1 [MELOXICAM]
11.5 µM

---

Experiment: physchem
Conditions: simulated gi fluid, pH 1.2
Hi there, I'd appreciate the recorded solubility thermodynamic at 24 h for every entry that follows.
The reply should consist of the numeric value with the unit placed after it.

{"Compound": "Cc1cnc(NC(=O)C2=C(O)c3ccccc3S(=O)(=O)N2C)s1 [MELOXICAM]", "solubility thermodynamic at 24 h": "0.0407 µM"}

We now examine a further compound.
What value of solubility thermodynamic at 24 h has been recorded for this entry: CC(=O)Oc1ccccc1C(=O)O [ASPIRIN]
1450 µM

---

Assay: physchem
Details: simulated gastric fluid, pH 1.2
Hi there, I'd appreciate the recorded solubility thermodynamic at 4 h for every entry that follows.
Answers are plain numbers, in µM.

{"Compound": "CC(=O)Nc1ccc(O)cc1", "Numeric result": 1000}
{"Compound": "O=c1c2cc(O)c(O)cc2oc2cc(O)c([C@@H]3O[C@H](CO)[C@@H](O)[C@H](O)[C@H]3O)c(O)c12", "Numeric result": 19.1}
{"Compound": "CN(C/C=C/C#CC(C)(C)C)Cc1cccc2ccccc12.Cl [TERBINAFINE HYDROCHLORIDE]", "Numeric result": 245}
{"Compound": "CCCSc1ccc2nc(NC(=O)OC)[nH]c2c1", "Numeric result": 151}

Each of the following entries comes with a recorded value; kindly state solubility thermodynamic at 4 h for each.
1. OC(Cn1cncn1)(Cn1cncn1)c1ccc(F)cc1F
2. COc1ccc2[nH]c([S+]([O-])Cc3ncc(C)c(OC)c3C)nc2c1 (stereo unspecified)
3. CCC(=O)O[C@]1(C(=O)SCF)[C@H](C)C[C@H]2[C@@H]3C[C@H](F)C4=CC(=O)C=C[C@]4(C)[C@@]3(F)[C@@H](O)C[C@@]21C [FLUTICASONE PROPIONATE]
4. CC(C)(C#N)c1cc(Cn2cncn2)cc(C(C)(C)C#N)c1
5. CN1C(=N)N(C)/C(=C/c2c[nH]c3ccccc23)C1=O
6. CCCCCCCCCCCC1=C(O)C(=O)C=C(O)C1=O

1.62
437
1
1.7
79.4
1.7

Each of the following entries comes with a recorded value; kindly state solubility thermodynamic at 4 h for each.
1. [H]/N=C(/N)N[C@H]1[C@H](O)[C@@H](O)[C@H](O[C@@H]2O[C@@H](C)[C@](O)(C=O)[C@H]2O[C@@H]2O[C@@H](CO)[C@H](O)[C@@H](O)[C@@H]2NC)[C@@H](N/C(N)=N\[H])[C@@H]1O
2. CC(=O)N[C@@H](CS)C(=O)O
3. CC(=O)O[C@@]12CO[C@@H]1C[C@H](O)[C@@]1(C)C(=O)[C@H](O)C3=C(C)[C@@H](OC(=O)[C@H](O)[C@@H](NC(=O)OC(C)(C)C)c4ccccc4)C[C@@](O)([C@@H](OC(=O)c4ccccc4)[C@H]21)C3(C)C.O.O.O
4. C[C@@H]1[C@H](O)[C@@H](C)/C=C/C=C/C=C/C=C/C=C/C=C/C=C/[C@H](O[C@@H]2O[C@H](C)[C@@H](O)[C@H](N)[C@@H]2O)C[C@@H]2O[C@](O)(C[C@@H](O)C[C@@H](O)[C@H](O)CC[C@@H](O)C[C@@H](O)CC(=O)O[C@H]1C)C[C@H](O)[C@H]2C(=O)O
5. COc1c2occc2c(OC)c2c(=O)cc(C)oc12
6. C=C(C)[C@@H](CC=C(C)C)C[C@@]12C[C@@H](CC=C(C)C)C(C)(C)[C@@](CC=C(C)C)(C(=O)C(C(=O)c3ccc(O)c(O)c3)=C1O)C2=O

0.851
6.17
0.617
13.5
30.9
0.832
